The values you see were collected from patent US20250109118A1.

System: MiaPaCa-2 cells
ASSAY_OVERVIEW: MiaPaCa-2 Cell proliferation assay in 3D culture (CCK8)
Assay type: cell-based
STUDY_CONDITIONS: Homo sapiens, MIA PaCa-2, 120 h; 3D spheroid culture, 5 days with compound, CCK8 readout
Below, each of the compounds is paired with its reported IC50 value.
QUANTITY_KIND: IC50

In [3]: df
Out[3]:
                                    compound            result
 0  CC1(CN)CCN(c2cnc(Sc3cccc(C(=O)NS(C)(=O)=O)c3Cl)c(N)n2)CC1 [Example 37]  5000 to 50000 nM
 1  C[C@@H]1OCC2(CCN(c3cnc(Sc4cccc(NC(=O)NS(=O)(=O)C5CCC5)c4Cl)cn3)CC2)[C@@H]1N [Example 82]          ≤ 500 nM
 2  CC1(CN)CCN(c2cnc(Sc3cccc(C(=O)NS(=O)(=O)C4CCCCC4)c3Cl)cn2)CC1 [Example 27]          ≤ 500 nM
 3  C[C@@H]1OCC2(CCN(c3cnc(Sc4cccc(NS(=O)(=O)NC(=O)Nc5ccccc5)c4Cl)cn3)CC2)[C@@H]1N [Example 12]          ≤ 500 nM
 4  Cc1nc(N2CCC(C)(CN)CC2)c(CO)nc1Sc1ccnc(NC(=O)NS(=O)(=O)c2ccccc2)c1Cl [Example 9]          ≤ 500 nM
 5  C[C@@H]1OCC2(CCN(c3cnc(Sc4cccc(NC(=O)NS(=O)(=O)C5CCN(C)CC5)c4Cl)cn3)CC2)[C@@H]1N [Example 70]          ≤ 500 nM
 6  CC1(CN)CCN(c2cnc(Sc3cccc(C(=O)NS(=O)(=O)c4ccncc4)c3Cl)c(N)n2)CC1 [Example 39]  5000 to 50000 nM
 7  CC1(CN)CCN(c2cnc(Sc3cccc(NC(=O)NS(=O)(=O)c4cccnc4)c3Cl)c(N)n2)CC1 [Example 46]          ≤ 500 nM
 8  Nc1nc(N2CCC3(CC2)COC[C@H]3N)cnc1Sc1cccc(C(=O)NS(=O)(=O)c2ccccc2)c1Cl [Example 31]          ≤ 500 nM
 9  CC1(CN)CCN(c2cnc(Sc3cccc(NC(=O)NS(=O)(=O)c4ccccc4F)c3Cl)c(N)n2)CC1 [Example 47]    500 to 5000 nM
10  CC1(CN)CCN(c2cnc(Sc3cccc(C(=O)NS(=O)(=O)c4ccccn4)c3Cl)c(N)n2)CC1 [Example 35]          ≤ 500 nM
11  C[C@@H]1OCC2(CCN(c3cnc(Sc4cccc(NC(=O)NS(=O)(=O)c5cccnc5)c4Cl)cn3)CC2)[C@@H]1N [Example 61]          ≤ 500 nM
12  C[C@@H]1OCC2(CCN(c3cnc(Sc4cccc(NC(=O)NS(=O)(=O)c5ccc(F)cc5)c4Cl)cn3)CC2)[C@@H]1N [Example 78]          ≤ 500 nM
13  Cc1noc(C)c1S(=O)(=O)NC(=O)Nc1nccc(Sc2cnc(N3CCC4(CC3)CO[C@@H](C)[C@H]4N)cn2)c1Cl [Example 76]          ≤ 500 nM
